# TARGET SYSTEM: human ApoC3 (human)
# Sequence (chain, as listed by the source): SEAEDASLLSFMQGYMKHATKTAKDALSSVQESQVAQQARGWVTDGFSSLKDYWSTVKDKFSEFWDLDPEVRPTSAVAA
# MEASUREMENT NOTES: SPR pH 7.4, antibody immobilized
Listed here: items and their measured Kd.
// units = nM; emit number, no label

These solved cases illustrate the format of a correct answer.
# BINDER, UNIT STRING, MEASURED RESULT
rows = [
    ("mAb5 (antibody, V domains shown) VH: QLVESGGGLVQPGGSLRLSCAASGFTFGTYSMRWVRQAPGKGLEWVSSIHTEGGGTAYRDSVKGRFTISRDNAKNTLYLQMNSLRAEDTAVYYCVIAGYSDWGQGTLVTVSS VL: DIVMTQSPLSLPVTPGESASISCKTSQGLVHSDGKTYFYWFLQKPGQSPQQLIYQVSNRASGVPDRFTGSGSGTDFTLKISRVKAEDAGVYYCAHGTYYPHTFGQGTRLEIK", "nM", 181),
    ("mAb6 (antibody, V domains shown) VH: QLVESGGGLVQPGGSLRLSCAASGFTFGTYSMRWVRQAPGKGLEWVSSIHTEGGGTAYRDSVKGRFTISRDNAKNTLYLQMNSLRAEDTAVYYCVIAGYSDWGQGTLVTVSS VL: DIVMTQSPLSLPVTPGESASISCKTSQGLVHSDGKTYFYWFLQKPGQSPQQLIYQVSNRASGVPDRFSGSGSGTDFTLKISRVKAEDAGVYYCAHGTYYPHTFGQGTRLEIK", "nM", 165),
]

Then this binder:
Recorded Kd (binder mAb18 (antibody, V domains shown) VH: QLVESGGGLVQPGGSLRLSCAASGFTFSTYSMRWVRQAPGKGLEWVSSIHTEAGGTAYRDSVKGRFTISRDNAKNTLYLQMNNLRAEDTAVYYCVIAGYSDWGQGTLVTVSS VL: DIVMTQSPLSLPVTPGEPASISCKTSQGLVHSGGKTYFYWFLQKPGQSPQQLIYQVSNRASGVPDRFTGSGSGTDFTLKISRVEAEDAGVYYCAHGTYYPHTFGQGTRLEIK ): 509

From: patent US10538583
